Ref: the OligoGym collection

target: RERG; assay: pooled miR-30 sensor sort-seq; sequence = guide strand; settings: shRNA; note: reference of the scale not given here
Label not satisfied if sensor-assay potency score (higher = more potent) falls below -0.2; label satisfied in every other case.

# Seq String, Label Class
data = [
    ("TAATTCTACATCTTCTACTAGC", "not satisfied"),
    ("TTTGTTTCCAACCAAGATGAGA", "not satisfied"),
    ("TTCTACATCTTCTACTAGCATT", "not satisfied"),
    ("TCTTCTGTGCTAACCTGCCTGG", "not satisfied"),
    ("TTAATTTGCTTGTCTTTTGGAC", "satisfied"),
    ("TTTGATCTCATCTAGGATGTTC", "satisfied"),
    ("TTGCCCTGCACCATCCTCCGGC", "not satisfied"),
]

====

biological target: PPM1F; test: pooled miR-30 sensor sort-seq; sequence = guide strand; conditions: shRNA
Label Criterion not met if sensor-assay potency score (higher = more potent) falls below -0.7; label Criterion met in every other case.

# Seq String, Label Class
measured = [
    ("TAAATTATATGACACAACAGGT", "Criterion not met"),
    ("TCAAACACAGCAAAGTAGGCGC", "Criterion met"),
    ("TATGACACAACAGGTCATCTTG", "Criterion met"),
    ("ATATCTGTAAATATGAACCCAC", "Criterion met"),
    ("TCTGTCTGTAGCAGCTGTGAAA", "Criterion not met"),
    ("AACATCTGGTCGGTGCGCCGGA", "Criterion not met"),
    ("TTTCCTGAGAAACATCTGGTCG", "Criterion not met"),
    ("TTAAATTATATGACACAACAGG", "Criterion not met"),
]

====

sensor-assay potency score (higher = more potent) overview
target: ANGPTL3; assay: pooled miR-30 sensor sort-seq; sequence = guide strand; details: shRNA
Measured Property: sensor-assay potency score (higher = more potent)

# Seq String, Reported
data = [
    ("TTTATATGTAGTTCTTCTCAGT", -0.38),
    ("TTTGTGATCCATCTATTCGATG", -1.29),
    ("TTAATGTCCATGGACTACCTGA", -0.665),
    ("TTACATCGTCTAACATAGCAAA", -1.16),
    ("TTCTTTTATTTGACTATGCTGT", -0.537),
    ("TTGACTTGTAGTTTATATGTAG", 0.386),
    ("TAATGTTTGTTGTCTTTCCAGT", -0.418),
    ("TCGTCTAACATAGCAAATCTTG", -1.34),
]

====

molecular target: STK11; experiment: pooled miR-30 sensor sort-seq; sequence = guide strand; details: shRNA
Measured Property: sensor-assay potency score (higher = more potent)

# Seq String, Reported
rows = [
    ("TAACACATCCACCAGCTGGATG", -1.1),
    ("TTCGTTGTATAACACATCCACC", -1.02),
    ("TTTCTGCTTCTCTTCGTTGTAT", 0.0401),
    ("TCAGCTGACAGAAGTACCCGTG", 0.17),
    ("TTTTTGTGCCGTAACCTCCTCA", 0.218),
    ("TCTTCTTGAGGATCTTGACGGC", -0.46),
    ("TATAACACATCCACCAGCTGGA", 0.528),
]

====

sensor-assay potency score (higher = more potent) overview
target: BDH2; test: pooled miR-30 sensor sort-seq; sequence = guide strand; settings: shRNA
Measured Property: sensor-assay potency score (higher = more potent)

# Seq String, Reported
measured = [
    ("TTAAAGAGAACATCAAGTCTCT", 0.782),
    ("TTCTTTCTTGTAGAGATGGCGT", -0.55),
    ("TTGATCATCAGGTACATGCTGC", 0.603),
    ("TTTGTTTCTTCTTTGTGACATC", -0.953),
    ("TTCACAACTCCTTTGACGCTGG", 0.0987),
    ("TTGGTTGTGCTGTACACACATC", -1.05),
]

====

sensor-assay potency score (higher = more potent) overview
target: PCSK5; test: pooled miR-30 sensor sort-seq; sequence = guide strand; settings: shRNA
Measured Property: sensor-assay potency score (higher = more potent)

# Seq String, Reported
measured = [
    ("TTTTGCAGGATTTGTATCCATT", -1.05),
    ("TTGATTTGTCGGTCTGTGCTCT", 0.6),
    ("TTTGCTTCAACCATGTCCGTGA", 0.588),
    ("TTGTCTTGATTTGTCGGTCTGT", 0.944),
    ("TTGATGAATCCGTACTTGCTGG", -0.268),
    ("ATAGCTGATACTACAGCTCTGC", -0.314),
]

====

molecular target: CYP4A11; assay: pooled miR-30 sensor sort-seq; sequence = guide strand; conditions: shRNA
Label criterion not met if sensor-assay potency score (higher = more potent) falls below -0.8; label criterion met in every other case.

# Seq String, Target Or Test System, Label Class
measured = [
    ("AACACAAGTCGTGCAATGGGGA", "CYP4A11", "criterion not met"),
    ("TGTGCAGGTAGAGCTGAACTGC", "CYP4A11", "criterion not met"),
    ("TAGATGGTGTCATTCTGGTGAA", "CYP4A11", "criterion not met"),
    ("TTTGAGCAGCCACTGCCTGTGC", "CYP4A11", "criterion met"),
    ("AAAGGGTCAAACACCTCTGGGT", "CYP4A11", "criterion met"),
]

====

biological target: SRCRB4D; test: pooled miR-30 sensor sort-seq; sequence = guide strand; details: shRNA
sensor-assay potency score (higher = more potent) overview
Measured Property: sensor-assay potency score (higher = more potent)

# Seq String, Reported
records = [
    ("TGCTCTACTGGTTAACATCTTC", -0.561),
    ("TCGTAGGAGGTGCTCTACTGGT", -1.24),
    ("TTGACCAGACGTAGATGCCCGT", -0.902),
    ("TAACATCTTCCTTGTTGGGGGC", -0.0485),
    ("TTGTCCAGCAGGATGTGTCCGG", -0.554),
    ("TTCATCACACAGGACAGCCACA", -1.36),
    ("TTAACATCTTCCTTGTTGGGGG", 0.296),
]

====

target: BOLA1; test: pooled miR-30 sensor sort-seq; sequence = guide strand; settings: shRNA
sensor-assay potency score (higher = more potent) overview
Measured Property: sensor-assay potency score (higher = more potent)

# Seq String, Reported
records = [
    ("TAGGGGGCTCAGTCCCTCGAAA", -1.29),
    ("TAGTGAGTGATTCTTCTCTTTT", -0.956),
    ("TCTCGTTGCGAAGCTCTAGCAC", -0.674),
    ("TGGGGGGCTAGTGTCCAGCTGA", -1.56),
    ("TTCTTGTTCCCACCCAGGCATG", -1.63),
    ("TAACATGGAACATCCGGGCTGC", 0.946),
    ("TTGCGAAGCTCTAGCACCTCGG", -0.666),
]

====

sensor-assay potency score (higher = more potent) overview
molecular target: CIR1; assay: pooled miR-30 sensor sort-seq; sequence = guide strand; conditions: shRNA
Measured Property: sensor-assay potency score (higher = more potent)

# Seq String, Reported
records = [
    ("TTTATTGTTACTCTCACTCTCA", 0.426),
    ("TTTGTGTTTACTTCTGCTCTTC", 0.203),
    ("TTCTTCATGAAGCTTTCTCTTC", -0.59),
    ("TAGACTTGTCCTTCTCTTCAGA", -0.159),
    ("TTCTCTTCTTAGACTTGTCCTT", -0.317),
    ("TACTGCTTTCTGAAGTCTCAGT", -0.586),
]

====

sensor-assay potency score (higher = more potent) overview
target: UMOD; assay: pooled miR-30 sensor sort-seq; sequence = guide strand; settings: shRNA
Measured Property: sensor-assay potency score (higher = more potent)

# Seq String, Target Or Test System, Reported
rows = [
    ("TAGACTAGGTCATAGTTTCCAG", "UMOD", -0.219),
    ("TTGCAGTCCTCGTCTATACTGC", "UMOD", -0.687),
    ("TATACTGCACTCCTCACACGTC", "UMOD", -0.701),
    ("TTGCACTTTTCATTCATGGTGT", "UMOD", 0.244),
    ("TTTCATTCCTCGTCAACACTGT", "UMOD", 0.582),
]

====

biological target: PRKAR1B; experiment: pooled miR-30 sensor sort-seq; sequence = guide strand; details: shRNA
Label not met if sensor-assay potency score (higher = more potent) falls below -0.8; label met in every other case.

# Seq String, Label Class
data = [
    ("TACACCTCGGCACTCACGCCTC", "not met"),
    ("TTTCTCTCCATCTTCAAACTGG", "met"),
    ("TCTAGGATGGAGACCTTGCTGA", "met"),
    ("TTCCTTCTCCAGCTTCTCGAAG", "not met"),
    ("TTCCTCTTGAGGATCTCAGAGC", "not met"),
    ("TTGATCAACGACATAGAAGTTG", "met"),
    ("AACTCCTCGTACATCTTGCGTT", "not met"),
    ("TAACGCTGAATGTTCCTCTTGA", "met"),
]
